Molecular target: ScHse1
Experiment: SPOT peptide array binding signal intensity (averaged, normalized) (arbitrary units (background-subtracted, floor 0; scale differs between SH3 domains)); higher = stronger binding of the SH3 domain to the peptide
Reported metric: SPOT peptide array binding signal intensity
Simply state the number, no unit and no words.

Below: 2 binders and their reported SPOT peptide array binding signal intensity.
{"columns": ["Binder", "Data value"],
 "data": [
  ["KKAPPPVVKPKPRNF", 61],
  ["YRRKSIPFAPHQITA", 380]
]}

Turning now to a further record.
Which value of SPOT peptide array binding signal intensity has been reported for LSKRLPLRFPEHTSS in the records?
532
